Target: T1, recombinant human CD73 (SEQ ID NO:70) (human, UniProt P21589 27-549)
T1 construct: Soluble recombinant protein in normal SPR running buffer (open conformation), the soluble enzyme assay and HDX-MS; SPR stock bought from BPS Bioscience; also called rhuCD73; CD73 in the open conformation
T1 sequence: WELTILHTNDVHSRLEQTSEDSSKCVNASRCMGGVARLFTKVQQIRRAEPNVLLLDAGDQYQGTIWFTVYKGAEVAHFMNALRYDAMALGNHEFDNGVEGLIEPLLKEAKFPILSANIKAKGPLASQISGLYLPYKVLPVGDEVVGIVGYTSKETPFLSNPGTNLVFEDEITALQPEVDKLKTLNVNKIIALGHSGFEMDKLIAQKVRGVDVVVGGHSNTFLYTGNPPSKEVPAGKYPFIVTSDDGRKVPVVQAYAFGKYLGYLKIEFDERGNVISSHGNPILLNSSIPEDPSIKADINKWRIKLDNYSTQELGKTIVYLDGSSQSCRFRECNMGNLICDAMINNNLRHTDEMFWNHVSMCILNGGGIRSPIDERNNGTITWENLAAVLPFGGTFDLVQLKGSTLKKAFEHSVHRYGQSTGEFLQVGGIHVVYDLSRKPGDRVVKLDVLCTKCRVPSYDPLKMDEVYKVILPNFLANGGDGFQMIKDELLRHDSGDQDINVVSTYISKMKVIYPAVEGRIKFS
Experiment: SPR (Biacore 8K), antibody captured on anti-human Fc, CD73 as analyte, open conformation
In this section, each of the binders is paired with its reported Kd.
Measurement kind: Kd

>>> value_measured("CL25_hu_9-6 (antibody, V domains shown, Humanized CL25 antibody) VH: QVQLVQSGAEVKKPGSSVKVSCKASGYTFTSYGLSWVRQAPGQGLEWMGEIYPGSGNTYYNEKFKGRVTITADESTSTAYMELSSLRSEDTAVYYCARYDYLGSSYGFDYWGAGTTVTVSS VL: AIRMTQSPSSFSASTGDRVTITCKASQDVSTAVAWYQQKPGKAPKLLIYSASYRYSGVPSRFSGSGSGTDFTLTISCLQSEDFATYYCQQHYNTPYTFGGGTKLEIK")
"2.25 nM"
>>> value_measured("CL25_hu_11-6 (antibody, V domains shown, Humanized CL25 antibody) VH: QVQLVQSGAEVKKPGASVKVSCKASGYTFTSYGLSWVRQATGQGLEWMGEIYPGSGNTYYNEKFKGRVTMTANTSISTAYMELSSLRSEDTAVYYCARYDYLGSSYGFDYWGAGTTVTVSS VL: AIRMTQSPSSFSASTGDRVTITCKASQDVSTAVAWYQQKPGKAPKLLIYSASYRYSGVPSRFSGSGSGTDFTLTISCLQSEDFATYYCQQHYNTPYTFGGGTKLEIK")
"1.84 nM"
>>> value_measured("CL25_hu_9-5 (antibody, V domains shown, Humanized CL25 antibody) VH: QVQLVQSGAEVKKPGSSVKVSCKASGYTFTSYGLSWVRQAPGQGLEWMGEIYPGSGNTYYNEKFKGRVTITADESTSTAYMELSSLRSEDTAVYYCARYDYLGSSYGFDYWGAGTTVTVSS VL: DIVMTQSPDSLAVSLGERATINCKASQDVSTAVAWYQQKPGQPPKLLIYSASYRYSGVPDRFSGSGSGTDFTLTISSLQAEDVAVYYCQQHYNTPYTFGGGTKLEIK")
"2.02 nM"
